These entries and their values trace back to patent US4551538A.

system: arachidonic acid cyclooxygenase oxidation product PGE2; assay: inhibition of PGE2 synthesis by rat polymorphonuclear leukocytes; type: cell-based, rat (Wistar); settings: Rattus norvegicus, Leukocyte, read-out: 50% Inhibitory Concentration (IC50), PGE2
observable: pIC50
Remember the convention: pIC50 equals -log10 of concentration in molar.

Q: Report measured pIC50; entry is NC1=NN(c2cccc(C(F)(F)F)c2)CC1 [BW755C, reference compound]
A: 4.60

----------
test system: acute inflammatory response (carrageenan rat paw edema); test: carrageenan rat paw edema test; type: in vivo, rat (Sprague-Dawley); settings: 200 mg/kg perorally, 1 h prior to carrageenan, 3 h reading
observable: % Inhibition of paw edema (%)
Dear colleague, please return just the value in %, with no unit written.

Q: Look up and report % Inhibition of paw edema, with acute inflammatory response (carrageenan rat paw edema) as system, for O=C(O)C(O)N1C(=O)CCN1c1cccc(Cl)c1 (stereo not shown) [Example 3]
A: 29

Q: Retrieve % Inhibition of paw edema on acute inflammatory response (carrageenan rat paw edema); query O=C(O)C(O)N1C(=O)CCN1c1ccc(Cl)cc1 (stereo not shown) [Example 5]
A: 30

Q: Lab note: record % Inhibition of paw edema of O=C(O)C(O)N1C(=O)CCN1c1ccccc1 (stereo not shown) [Example 2] tested on acute inflammatory response (carrageenan rat paw edema).
A: 46

Q: Please indicate recorded % Inhibition of paw edema of O=C(O)C(O)N1C(=O)CCN1c1cccc(F)c1 (stereo not shown) [Example 4] measured with acute inflammatory response (carrageenan rat paw edema).
A: 44
